Observed IC50, system EGFR WT (Homo sapiens, UniProt P00533).

For C=CC(=O)N1Cc2sc3ncnc(Nc4ccc(Oc5ccc(C)nc5)c(C)c4)c3c2C(C)C1 (single isomer, unassigned) [Compound 146] , what is its reported IC50?
1 to 10 µM

For COc1ccc(Oc2ccc(Nc3ncnc4sc5c(c34)CCN(C(=O)/C=C/CN3CCOCC3)C5)cc2C)cn1 [Compound 164] , what is its reported IC50?
> 10 µM

For Cc1ccc(Oc2ccc(Nc3ncnc4sc5c(c34)CCN(C(=O)/C=C/CN3CCCOCC3)C5)cc2C)cn1 [Compound 42] , what is its reported IC50?
> 10 µM

For Cc1ccc(Oc2ccc(Nc3ncnc4sc5c(c34)CCN(C(=O)/C=C/CNC3CCC3)C5)cc2C)cn1 [Compound 54] , what is its reported IC50?
> 10 µM

For C=CC(=O)N1Cc2sc3ncnc(Nc4ccc(Oc5ccc(C)nc5)c(C)c4)c3c2C(C)C1 (single isomer, unassigned) [Compound 145] , what is its reported IC50?
> 10 µM

For O=C(/C=C/CN1CCOCC1)N1CCc2c(sc3ncnc(Nc4ccc(Oc5ccc6ncnn6c5)c(Cl)c4)c23)C1 [Compound 18] , what is its reported IC50?
> 10 µM

---

- target-system: EGFR (Homo sapiens)
- Sequence (P00533 25-1210): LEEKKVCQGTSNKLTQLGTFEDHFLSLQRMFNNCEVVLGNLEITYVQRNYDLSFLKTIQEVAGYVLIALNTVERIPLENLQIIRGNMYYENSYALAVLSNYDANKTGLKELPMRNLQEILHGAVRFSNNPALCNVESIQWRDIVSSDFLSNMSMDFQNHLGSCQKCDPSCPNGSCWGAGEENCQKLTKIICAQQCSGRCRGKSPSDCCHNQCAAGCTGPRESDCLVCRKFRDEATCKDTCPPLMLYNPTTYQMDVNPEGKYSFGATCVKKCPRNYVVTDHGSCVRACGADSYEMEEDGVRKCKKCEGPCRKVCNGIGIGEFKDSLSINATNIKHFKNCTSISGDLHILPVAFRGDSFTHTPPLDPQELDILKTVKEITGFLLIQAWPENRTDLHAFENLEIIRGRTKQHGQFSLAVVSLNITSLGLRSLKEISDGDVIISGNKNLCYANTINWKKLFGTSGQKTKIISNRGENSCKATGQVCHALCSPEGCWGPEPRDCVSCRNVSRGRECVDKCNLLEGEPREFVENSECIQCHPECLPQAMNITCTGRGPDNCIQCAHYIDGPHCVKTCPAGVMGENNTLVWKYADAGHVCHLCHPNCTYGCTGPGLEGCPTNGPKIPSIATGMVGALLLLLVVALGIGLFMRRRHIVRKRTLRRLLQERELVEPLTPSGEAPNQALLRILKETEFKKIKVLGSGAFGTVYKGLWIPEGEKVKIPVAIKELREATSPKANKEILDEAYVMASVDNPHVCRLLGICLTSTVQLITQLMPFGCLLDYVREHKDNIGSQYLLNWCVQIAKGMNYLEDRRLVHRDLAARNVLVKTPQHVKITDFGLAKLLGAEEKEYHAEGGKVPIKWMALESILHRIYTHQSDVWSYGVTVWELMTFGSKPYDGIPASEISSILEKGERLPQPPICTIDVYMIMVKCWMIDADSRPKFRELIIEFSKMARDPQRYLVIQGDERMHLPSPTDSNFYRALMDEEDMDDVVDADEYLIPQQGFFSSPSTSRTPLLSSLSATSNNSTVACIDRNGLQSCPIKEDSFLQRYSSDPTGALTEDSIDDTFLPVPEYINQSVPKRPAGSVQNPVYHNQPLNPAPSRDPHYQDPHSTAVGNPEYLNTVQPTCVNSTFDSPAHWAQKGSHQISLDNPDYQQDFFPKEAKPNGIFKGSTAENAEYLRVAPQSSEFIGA
- assay-comment: EGFR signaling (pEGFR Tyr1068/total EGFR MSD) in A431 cells
- Format: cell-based
- Set-up: endogenous in cells; host or cells: A431, N87
- condition-notes: ratio A431 pEGFR EC50 to HEK YVMA pHER2 EC50
measured-endpoint: Selectivity A431 EC50/HEKYVMA EC50

{"molecule": "Cc1ccc(Oc2ccc(Nc3ncnc4sc5c(c34)CCN(C(=O)/C=C/CN3CC4C(CO)C4C3)C5)cc2C)cn1 (stereo not drawn)", "target-system": "EGFR (Homo sapiens)", "measured-endpoint": "Selectivity A431 EC50/HEKYVMA EC50", "observed": "E (E: >1 and < 5)"}
{"molecule": "Cc1cc(Nc2ncnc3sc4c(c23)CCN(C(=O)/C=C/CN(C)C)C4)ccc1Oc1ccc2nonc2c1", "target-system": "EGFR (Homo sapiens)", "measured-endpoint": "Selectivity A431 EC50/HEKYVMA EC50", "observed": "D (D: ≥ 5 and < 10)"}
{"molecule": "C=CC(=O)N1CCc2c(sc3ncnc(Nc4ccc(Oc5cccnc5)c(Cl)c4)c23)C1", "target-system": "EGFR (Homo sapiens)", "measured-endpoint": "Selectivity A431 EC50/HEKYVMA EC50", "observed": "E (E: >1 and < 5)"}
{"molecule": "Cc1ccc(Oc2ccc(Nc3ncnc4sc5c(c34)C(C)CN(C(=O)/C=C/CN(C)C)C5)cc2C)cn1 (stereo not drawn)", "target-system": "EGFR (Homo sapiens)", "measured-endpoint": "Selectivity A431 EC50/HEKYVMA EC50", "observed": "D (D: ≥ 5 and < 10)"}

---

- target-system: EGFR WT (Homo sapiens)
- Construct: purchased Thermo Fisher, Carlsbad, CA ERBB1 PR7295B
- Sequence (P00533 25-1210): as above
- assay-comment: Enzymatic assay EGFR WT (method c)
- Type: biochemical
- condition-notes: [EGFR WT]=2 nM, [ATP]=1 mM, [Peptide 22]=1 μM
What IC50 was measured for each of the following?

For Cc1cc(Nc2ncnc3sc4c(c23)CN(C(=O)/C=C/CN(C)C)C4)ccc1Oc1ccc2ncnn2c1 , what is its reported IC50?
> 10 µM

For Cc1ccc(Oc2ccc(Nc3ncnc4sc5c(c34)CCN(C(=O)/C=C/CN(C)C)C5)cc2C)cn1 , what is its reported IC50?
1 to 10 µM

For CCOC/C=C/C(=O)N1CCc2c(sc3ncnc(Nc4ccc(Oc5ccc(C)nc5)c(C)c4)c23)C1 , what is its reported IC50?
> 10 µM

For Cc1ccc(Oc2ccc(Nc3ncnc4sc5c(c34)CCN(C(=O)/C=C/CN3CC=CCC3)C5)cc2C)cn1 , what is its reported IC50?
> 10 µM

For Cc1ccc(Oc2ccc(Nc3ncnc4sc5c(c34)CN(C(=O)/C=C/CN(C)C)C5C)cc2C)cn1 (stereo not shown) , what is its reported IC50?
> 10 µM

For Cc1ncc(Oc2ccc(Nc3ncnc4sc5c(c34)CCN(C(=O)/C=C/CN(C)C)C5)cc2C)cn1 , what is its reported IC50?
> 10 µM

For Cc1ccc(Oc2ccc(Nc3ncnc4sc5c(c34)CCN(C(=O)/C=C/CN[C@H]3CC[C@H](OC(F)F)CC3)C5)cc2C)cn1 , what is its reported IC50?
1 to 10 µM

For Cc1ccc(Oc2ccc(Nc3ncnc4sc5c(c34)CCN(C(=O)/C=C/CN3CC4CC4C3)C5)cc2C)cn1 (stereo not shown) , what is its reported IC50?
1 to 10 µM

For Cc1cc(Nc2ncnc3sc4c(c23)CCN(C(=O)/C=C/CN(C)C)C4)ccc1Oc1ccc(N(C)C)nc1 , what is its reported IC50?
1 to 10 µM

For O=C(/C=C/CN1CC2CCC(C2)C1)N1CCc2c(sc3ncnc(Nc4ccc(Oc5ccc6ncnn6c5)c(Cl)c4)c23)C1 , what is its reported IC50?
> 10 µM

For Cc1ccc(Oc2ccc(Nc3ncnc4sc5c(c34)CCN(C(=O)/C=C/CN3CC4CC3CO4)C5)cc2C)cn1 (stereo not shown) , what is its reported IC50?
> 10 µM

For Cc1cc(Nc2ncnc3sc4c(c23)CCN(C(=O)/C=C/CN(C)C)CC4)ccc1Oc1ccn2ncnc2c1 , what is its reported IC50?
> 10 µM

For COc1ccc(Oc2ccc(Nc3ncnc4sc5c(c34)C(C)CN(C(=O)/C=C/CN(C)C)C5)cc2C)cn1 (stereo not shown) , what is its reported IC50?
> 10 µM

For CN(C/C=C/C(=O)N1CCc2c(sc3ncnc(Nc4ccc(Oc5ccc6ncnn6c5)c(Cl)c4)c23)C1)C(C)(C)C , what is its reported IC50?
> 10 µM

For Cc1ccc(Oc2ccc(Nc3ncnc4sc5c(c34)CCN(C(=O)/C=C/CNCC3CN(C)CCO3)C5)cc2C)cn1 (stereo not shown) , what is its reported IC50?
> 10 µM

For Cc1cc(Nc2ncnc3sc4c(c23)CCN(C(=O)/C=C/CN2CC3CCC(C3)C2)C4)ccc1Oc1ccc2ncnn2c1 , what is its reported IC50?
1 to 10 µM

For Cc1cc(Nc2ncnc3sc4c(c23)CCN(C(=O)/C=C/CN(C)C)C4)ccc1Oc1ccn2ccnc2c1 , what is its reported IC50?
> 10 µM

For Cc1cc(Nc2ncnc3sc4c(c23)CN(C(=O)/C=C/CN(C)C)CC4)ccc1Oc1ccc2ncnn2c1 , what is its reported IC50?
> 10 µM

For Cc1ccc(Oc2ccc(Nc3ncnc4sc5c(c34)CCN(C(=O)/C=C/CN3CC4(C3)CS(=O)(=O)C4)C5)cc2C)cn1 , what is its reported IC50?
> 10 µM

For Cc1ccc(Oc2ccc(Nc3ncnc4sc5c(c34)CCN(C(=O)/C=C/CN3CC4CC(C3)O4)C5)cc2C)cn1 , what is its reported IC50?
> 10 µM

For C=CC(=O)N1CCc2c(sc3ncnc(Nc4ccc(Oc5ccc6ncnn6c5)c(Cl)c4)c23)C1 , what is its reported IC50?
> 10 µM

For Cc1ccc(Oc2ccc(Nc3ncnc4sc5c(c34)CCN(C(=O)/C=C/CN3CCCC(F)(CO)C3)C5)cc2C)cn1 (stereo not shown) , what is its reported IC50?
1 to 10 µM

---

- target-system: HER2YVMA (Homo sapiens, UniProt P04626, INS775YVMA)
- Sequence (P04626 with tags, fused parts or gaps INS775YVMA): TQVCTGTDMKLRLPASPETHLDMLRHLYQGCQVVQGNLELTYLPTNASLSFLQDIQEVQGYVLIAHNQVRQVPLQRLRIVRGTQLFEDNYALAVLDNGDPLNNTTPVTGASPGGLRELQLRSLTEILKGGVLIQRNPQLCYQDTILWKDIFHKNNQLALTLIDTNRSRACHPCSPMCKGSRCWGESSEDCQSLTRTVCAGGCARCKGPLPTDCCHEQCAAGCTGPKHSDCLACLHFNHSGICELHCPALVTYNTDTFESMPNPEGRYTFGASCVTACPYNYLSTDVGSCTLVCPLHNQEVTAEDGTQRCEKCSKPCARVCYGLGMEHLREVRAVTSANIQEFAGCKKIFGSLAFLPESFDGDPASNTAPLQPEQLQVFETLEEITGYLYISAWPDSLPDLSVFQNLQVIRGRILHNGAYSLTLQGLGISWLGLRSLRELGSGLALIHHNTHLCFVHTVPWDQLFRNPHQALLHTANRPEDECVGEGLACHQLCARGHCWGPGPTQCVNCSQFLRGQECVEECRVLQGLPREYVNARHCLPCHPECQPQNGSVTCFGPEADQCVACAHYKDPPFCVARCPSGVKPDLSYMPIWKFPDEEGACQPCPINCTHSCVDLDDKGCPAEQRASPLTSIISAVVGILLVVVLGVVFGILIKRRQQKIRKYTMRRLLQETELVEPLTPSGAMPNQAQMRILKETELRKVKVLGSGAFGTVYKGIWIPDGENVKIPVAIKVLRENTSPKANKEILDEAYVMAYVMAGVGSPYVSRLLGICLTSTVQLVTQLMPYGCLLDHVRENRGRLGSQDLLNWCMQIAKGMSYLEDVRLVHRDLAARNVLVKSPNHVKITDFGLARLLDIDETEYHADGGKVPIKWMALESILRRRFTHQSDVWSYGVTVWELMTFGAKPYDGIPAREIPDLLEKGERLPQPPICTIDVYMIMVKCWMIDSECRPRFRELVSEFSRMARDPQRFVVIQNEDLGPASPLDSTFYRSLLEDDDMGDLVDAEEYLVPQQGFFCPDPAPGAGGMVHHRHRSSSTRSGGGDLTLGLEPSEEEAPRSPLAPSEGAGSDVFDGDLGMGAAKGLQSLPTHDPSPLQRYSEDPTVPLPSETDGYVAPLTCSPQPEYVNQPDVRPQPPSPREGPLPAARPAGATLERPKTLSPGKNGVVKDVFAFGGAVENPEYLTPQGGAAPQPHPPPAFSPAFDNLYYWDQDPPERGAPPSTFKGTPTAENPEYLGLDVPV
- assay-comment: Enzymatic assay HER2YVMA (method b)
- condition-notes: [HER2YVMA]=5 nM, [ATP]=25 μM, [Peptide 22]=1 μM
pIC50: −log10 of the molar value.
What pIC50 was measured for each of the following?

For Cc1ccc(Oc2ccc(Nc3ncnc4sc5c(c34)CCN(C(=O)/C=C/CN(C)C)CC5)cc2Cl)cn1 , what is its reported pIC50?
6.00 to 7.00

For Cc1ccc(Oc2ccc(Nc3ncnc4sc5c(c34)CCN(C(=O)/C=C/CN3CC(C)OC(C)C3C)C5)cc2C)cn1 (centres unmarked) , what is its reported pIC50?
> 7.00

For Cc1ccc(Oc2ccc(Nc3ncnc4sc5c(c34)CCN(C(=O)/C=C/CN3CCOC4(CCC4)C3)C5)cc2C)cn1 , what is its reported pIC50?
6.00 to 7.00

For CNC(=O)CNC/C=C/C(=O)N1CCc2c(sc3ncnc(Nc4ccc(Oc5ccc(C)nc5)c(C)c4)c23)C1 , what is its reported pIC50?
> 7.00

For Cc1ccc(Oc2ccc(Nc3ncnc4sc5c(c34)CN(C(=O)/C=C/CN(C)C)CC5)cc2C)cn1 , what is its reported pIC50?
> 7.00

For COc1ccc(Oc2ccc(Nc3ncnc4sc5c(c34)CCN(C(=O)/C=C/CN3CC[C@@H](CO)C3)C5)cc2C)cn1 , what is its reported pIC50?
> 7.00

For Cc1ccc(Oc2ccc(Nc3ncnc4sc5c(c34)CCN(C(=O)/C=C/CN3CC4CC(C4)C3)C5)cc2C)cn1 , what is its reported pIC50?
> 7.00

For Cc1ccc(Oc2ccc(Nc3ncnc4sc5c(c34)CCN(C(=O)/C=C/CN3CCC(n4ccnc4)CC3)C5)cc2C)cn1 , what is its reported pIC50?
> 7.00

For Cc1ccc(Oc2ccc(Nc3ncnc4sc5c(c34)C(C)N(C(=O)C=CCN(C)C)C5)cc2C)cn1 (single isomer, unassigned) [Compound 148] , what is its reported pIC50?
5.00 to 6.00

For Cc1cc(Nc2ncnc3sc4c(c23)CCN(C(=O)/C=C/CN(C)C)C4)ccc1Oc1ccc2[nH]ncc2c1 , what is its reported pIC50?
> 7.00

For CCN(CC)C/C=C/C(=O)N1CCc2c(sc3ncnc(Nc4ccc(Oc5ccc(C)nc5)c(C)c4)c23)C1 , what is its reported pIC50?
> 7.00

For C=C(CN1CCc2c(sc3ncnc(Nc4ccc(Oc5ccc(C)nc5)c(C)c4)c23)C1)C(=O)OCC , what is its reported pIC50?
5.00 to 6.00

For C=CC(=O)N1Cc2sc3ncnc(Nc4ccc(Oc5ccc(C)nc5)c(C)c4)c3c2C(C)C1 (single isomer, unassigned) [Compound 146] , what is its reported pIC50?
> 7.00

For Cc1cc(Nc2ncnc3sc4c(c23)CCN(C(=O)/C=C/CN(C)C)C4)ccc1Oc1cccc(B(O)O)c1 , what is its reported pIC50?
> 7.00

For Cc1ccc(Oc2ccc(Nc3ncnc4sc5c(c34)CCN(C(=O)/C=C/CN3CCOC[C@@H]3C)C5)cc2C)cn1 , what is its reported pIC50?
6.00 to 7.00

For Cc1ccc(Oc2ccc(Nc3ncnc4sc5c(c34)CCN(C(=O)/C=C/CNC3CCOC3)C5)cc2C)cn1 (centres unmarked) , what is its reported pIC50?
> 7.00

For Cc1ccc(Oc2ccc(Nc3ncnc4sc5c(c34)CCN(C(=O)/C=C/CN3CCOCC3(C)C)C5)cc2C)cn1 , what is its reported pIC50?
> 7.00
